Collected IC50 values appear next to each entry.
Target: LRRK2(G2019S mutation, GST-LRRK2(amino acids 970-2527)) (Homo sapiens, UniProt Q5S007, G2019S)
Construct: GST-LRRK2(amino acids 970-2527); GST (N); purchased Life Technologies Corporation
Sequence (Q5S007 970-2527 G2019S): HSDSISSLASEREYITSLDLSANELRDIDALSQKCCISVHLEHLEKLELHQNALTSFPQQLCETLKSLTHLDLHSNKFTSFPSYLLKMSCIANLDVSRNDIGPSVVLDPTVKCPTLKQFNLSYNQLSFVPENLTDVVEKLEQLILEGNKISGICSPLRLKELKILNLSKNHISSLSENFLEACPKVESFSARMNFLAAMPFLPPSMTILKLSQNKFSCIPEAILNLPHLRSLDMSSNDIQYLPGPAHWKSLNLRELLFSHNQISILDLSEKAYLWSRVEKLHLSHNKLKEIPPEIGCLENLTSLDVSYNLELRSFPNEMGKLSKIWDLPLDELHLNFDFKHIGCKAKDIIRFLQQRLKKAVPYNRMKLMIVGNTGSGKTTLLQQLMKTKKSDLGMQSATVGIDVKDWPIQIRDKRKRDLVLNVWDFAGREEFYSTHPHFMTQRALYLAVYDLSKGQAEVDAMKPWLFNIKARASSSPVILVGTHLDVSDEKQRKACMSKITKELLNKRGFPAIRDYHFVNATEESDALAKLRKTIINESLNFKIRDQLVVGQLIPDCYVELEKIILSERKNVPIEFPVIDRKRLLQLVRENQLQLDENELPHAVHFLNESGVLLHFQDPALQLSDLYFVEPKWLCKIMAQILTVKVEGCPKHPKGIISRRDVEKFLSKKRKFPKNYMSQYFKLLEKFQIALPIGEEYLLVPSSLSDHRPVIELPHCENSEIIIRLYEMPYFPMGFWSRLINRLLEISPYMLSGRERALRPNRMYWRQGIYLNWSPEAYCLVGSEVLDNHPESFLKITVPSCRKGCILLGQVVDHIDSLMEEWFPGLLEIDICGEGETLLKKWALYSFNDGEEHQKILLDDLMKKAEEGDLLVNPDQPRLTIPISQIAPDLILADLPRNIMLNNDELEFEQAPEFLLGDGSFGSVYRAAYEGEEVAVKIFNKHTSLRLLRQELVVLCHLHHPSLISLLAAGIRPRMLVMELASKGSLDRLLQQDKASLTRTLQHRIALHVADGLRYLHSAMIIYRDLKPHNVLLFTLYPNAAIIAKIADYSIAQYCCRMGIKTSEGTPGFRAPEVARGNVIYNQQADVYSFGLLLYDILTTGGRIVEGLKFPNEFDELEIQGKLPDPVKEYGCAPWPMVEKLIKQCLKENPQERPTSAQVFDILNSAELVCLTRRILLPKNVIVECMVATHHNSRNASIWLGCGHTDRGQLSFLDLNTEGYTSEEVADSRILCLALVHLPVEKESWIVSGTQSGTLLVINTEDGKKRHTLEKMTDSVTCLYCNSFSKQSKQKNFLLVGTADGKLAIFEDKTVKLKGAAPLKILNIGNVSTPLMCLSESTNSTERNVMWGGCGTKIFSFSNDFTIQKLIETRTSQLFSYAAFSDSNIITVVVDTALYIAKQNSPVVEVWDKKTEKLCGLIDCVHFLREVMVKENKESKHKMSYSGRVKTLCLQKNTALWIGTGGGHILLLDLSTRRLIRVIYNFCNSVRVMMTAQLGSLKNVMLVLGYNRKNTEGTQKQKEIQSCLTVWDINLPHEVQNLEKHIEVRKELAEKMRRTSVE
Experiment: LRRK2 Km ATP LanthaScreen Assay
Type: biochemical
Details: Km ATP LanthaScreen; mean IC50 of several tests; read-out: LRRK2 IC50
Procedure: Unless otherwise noted, all LRRK2 IC50 data presented in tables refers to the LRRK2 Km ATP LanthaScreen™ Assay that is described in the Biological Assay section. The data presented for the 5 mM and Km ATP LanthaScreen™ Assay represents mean IC50 values based on several test results and may have reasonable. deviations depending on the specific conditions and reagents used. […] Results are analysed using Assay Data Analyzer.

- MOL: "COC1CCN(c2cc(-c3n[nH]c4ccc(OC(C)C)cc34)ccn2)CC1"
  IC50, nM: 6
- MOL: "CC(C)Oc1ccc2[nH]nc(-c3ccnc(N4CCC(F)(F)C4)c3)c2c1"
  IC50, nM: 5.5
- MOL: "CS(=O)(=O)c1ccc2[nH]nc(-c3ccnc(N4CCOCC4)c3)c2c1"
  IC50, nM: 109
- MOL: "Cc1cccc(Nc2ccc3[nH]nc(-c4ccnc(N5CCOCC5)c4)c3c2)c1"
  IC50, nM: 28.7
- MOL: "CC(C)Oc1ccc2[nH]nc(-c3ccnc(N4CCN(C)C(=O)C4)c3)c2c1"
  IC50, nM: 2.6
